system: human membrane folate-binding protein (mFBP) (Homo sapiens)
Construct: mFBP prepared from cultured KB cells (human nasopharyngeal carcinoma cells); endogenous in cells
Sequence (P15328 25-234): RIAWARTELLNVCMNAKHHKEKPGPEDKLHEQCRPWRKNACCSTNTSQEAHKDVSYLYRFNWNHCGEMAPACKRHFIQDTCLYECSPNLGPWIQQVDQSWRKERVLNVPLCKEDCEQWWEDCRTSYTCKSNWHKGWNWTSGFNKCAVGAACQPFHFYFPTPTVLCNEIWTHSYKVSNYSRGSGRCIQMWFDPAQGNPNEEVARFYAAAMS
experimental.details: competitive binding assay against 3H-folic acid with mFBP prepared from KB cells
measured.endpoint: Kd (nM)
Report as a plain number; the unit nM is understood.

## Task Supply Kd value. Item: Cc1cc(C(=O)N[C@@H](CCC(=O)O)C(=O)O)sc1CC[C@H]1CNc2nc(N)[nH]c(=O)c2S1 [Compound 5]
## Result 0.71

## Task Supply recorded Kd for Cc1cc(C(=O)N[C@@H](CCC(=O)O)C(=O)O)sc1CC[C@H]1CNc2nc(N)[nH]c(=O)c2S1 (single isomer, unassigned) [Compound 3] here.
## Result 0.0042

## Task Retrieve Kd measured for Cc1cc(C(=O)N[C@@H](CCC(=O)O)C(=O)O)sc1CCCSc1c(N)nc(N)[nH]c1=O [Compound 2] and print it.
## Result 136

## Task Give me measured Kd, please, for this compound: Cc1cc(C(=O)N[C@@H](CCC(=O)O)C(=O)O)sc1CC[C@@H]1CNc2nc(N)[nH]c(=O)c2C1 (single isomer, unassigned) [Compound 7]
## Result 290

## Task Give recorded Kd. Cc1cc(C(=O)N[C@@H](CCC(=O)O)C(=O)O)sc1CC[C@@H]1CNc2nc(N)[nH]c(=O)c2S1 [Compound 4]
## Result 1

---

system: Human MTAP (Homo sapiens)
Construct: six-histidine tag (His6) (N); made in house; host or cells: E. coli BL21 DE3
Sequence (Q13126 whole entry): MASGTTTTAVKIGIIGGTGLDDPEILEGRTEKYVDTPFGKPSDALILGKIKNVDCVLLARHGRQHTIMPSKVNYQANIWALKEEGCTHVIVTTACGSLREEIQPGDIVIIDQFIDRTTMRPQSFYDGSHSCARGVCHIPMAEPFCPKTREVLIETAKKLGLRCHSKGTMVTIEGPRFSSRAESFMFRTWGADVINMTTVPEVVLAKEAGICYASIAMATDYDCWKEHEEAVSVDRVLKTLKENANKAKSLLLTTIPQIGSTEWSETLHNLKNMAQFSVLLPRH
experimental.details: MTAP substrate assay, coupled spectrophotometric (adenine, xanthine oxidase)
Type: biochemical
condition.context: compound 10 uM, 2 nM MTAP, relative to MTA at 10 uM
Please use MET whenever MT-A—10: initial velocity as a percentage of the initial velocity with MTA as substrate is not below 10%, and NOT MET whenever it is.

## Task Please tell me: is the molecule COc1ccc(CSC[C@H]2O[C@@H](n3cnc4c(N)ncnc43)[C@H](O)[C@@H]2O)cc1 [2(G)(16)] at or over 10% in terms of MT-A—10: initial velocity as a percentage of the initial velocity with MTA as substrate?
## Result MET

## Task # check: MT-A—10: initial velocity as a percentage of the initial velocity with MTA as substrate of Nc1ncnc2c1ncn2[C@@H]1O[C@H](CSc2nccc(-c3ccco3)n2)[C@@H](O)[C@H]1O [2(G)(112)] is greater than or equal to 10%
## Result MET

## Task Answer whether MT-A—10: initial velocity as a percentage of the initial velocity with MTA as substrate of CSc1nsc(SC[C@H]2O[C@@H](n3cnc4c(N)ncnc43)[C@H](O)[C@@H]2O)n1 [2(G)(152)] is greater than or equal to 10%.
## Result MET

## Task Entry Nc1ncnc2c1ncn2[C@@H]1O[C@H](CSc2ccc(Cl)cc2)[C@@H](O)[C@H]1O [2(G)(19)] : is its MT-A—10: initial velocity as a percentage of the initial velocity with MTA as substrate no less than 10%?
## Result MET

## Task Has Nc1ncnc2c1ncn2[C@@H]1O[C@H](CSCCCCO)[C@@H](O)[C@H]1O [2(G)(57)] a recorded MT-A—10: initial velocity as a percentage of the initial velocity with MTA as substrate greater than or equal to 10%?
## Result MET

## Task For this molecule, is measured MT-A—10: initial velocity as a percentage of the initial velocity with MTA as substrate 10% or higher? Nc1ncnc2c1ncn2[C@@H]1O[C@H](CSc2nc3ccccc3o2)[C@@H](O)[C@H]1O [2(G)(122)]
## Result MET

## Task Check the entry Nc1ncnc2c1ncn2[C@@H]1O[C@H](CSc2nc3cc(Cl)ccc3s2)[C@@H](O)[C@H]1O [2(G)(11)] : does MT-A—10: initial velocity as a percentage of the initial velocity with MTA as substrate equal or exceed 10%?
## Result MET

## Task Quick check: does CC1OCCC1SC[C@H]1O[C@@H](n2cnc3c(N)ncnc32)[C@H](O)[C@@H]1O (stereo partly shown) [2(G)(62)] have MT-A—10: initial velocity as a percentage of the initial velocity with MTA as substrate greater than or equal to 10%?
## Result NOT MET

## Task Reported MT-A—10: initial velocity as a percentage of the initial velocity with MTA as substrate at or above 10%? Nc1ncnc2c1ncn2[C@@H]1O[C@H](CSc2nccnc2CCc2ccccc2)[C@@H](O)[C@H]1O [2(G)(94)]
## Result NOT MET

## Task Record Cc1ccc(C)c(SC[C@H]2O[C@@H](n3cnc4c(N)ncnc43)[C@H](O)[C@@H]2O)c1 [2(G)(28)] ; criterion: MT-A—10: initial velocity as a percentage of the initial velocity with MTA as substrate no lower than 10%. Met?
## Result NOT MET

## Task Is MT-A—10: initial velocity as a percentage of the initial velocity with MTA as substrate for COC(=O)c1cccc(SC[C@H]2O[C@@H](n3cnc4c(N)ncnc43)[C@H](O)[C@@H]2O)c1 [2(G)(109)] at or above 10%?
## Result NOT MET

## Task Determine whether this molecule has MT-A—10: initial velocity as a percentage of the initial velocity with MTA as substrate no lower than 10%: Nc1ncnc2c1ncn2[C@@H]1O[C@H](CSc2ccc(Cl)c(Cl)c2)[C@@H](O)[C@H]1O [2(G)(128)]
## Result MET

## Task hey, is MT-A—10: initial velocity as a percentage of the initial velocity with MTA as substrate for this one >= 10%? Cn1nnnc1SC[C@H]1O[C@@H](n2cnc3c(N)ncnc32)[C@H](O)[C@@H]1O [2(G)(6)]
## Result MET

## Task Is reported MT-A—10: initial velocity as a percentage of the initial velocity with MTA as substrate greater than or equal to 10% here: Nc1ccc2[nH]c(SC[C@H]3O[C@@H](n4cnc5c(N)ncnc54)[C@H](O)[C@@H]3O)nc2c1 [2(G)(51)]
## Result MET

## Task Entry Nc1ncnc2c1ncn2[C@@H]1O[C@H](CSCCCCCCO)[C@@H](O)[C@H]1O [2(G)(78)] : is its MT-A—10: initial velocity as a percentage of the initial velocity with MTA as substrate no less than 10%?
## Result NOT MET

## Task Reported MT-A—10: initial velocity as a percentage of the initial velocity with MTA as substrate at or above 10%? Nc1ncnc2c1ncn2[C@@H]1O[C@H](CSc2ccc(Br)cc2)[C@@H](O)[C@H]1O [2(G)(17)]
## Result MET
